# assay_comment: amyloid nucleation score (Sup35N fusion, yeast selection) (log enrichment); library NNK3; higher = more nucleation; inactive = no reads after selection;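 also: zero at mode of non-aggregating sequences after 7 days selection at 30°C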
result_type: amyloid nucleation score

• TSILEWVSFDGSM = inactive
• YDTNLRLFRSRRLSPGWCFR = inactive
• NVYFGRYFI = inactive
• NTPRRLHSYLFSTLWY = inactive
• YEPSNCKLVSMYVFCRLKLA = -0.574
• LNYVLS = inactive
• YDCFFTEIAVVVNIE = inactive
• DKMIGWGDWSSLY = inactive
• VGSNTVM = -0.572
• QCQFYTSMMSAR = inactive
• VMLNNCRGYLANCDSCSW = inactive
• PDGTQINFN = inactive

###

# assay_comment: amyloid nucleation score (Sup35N fusion, yeast selection) (log enrichment); library NNK2; higher = more nucleation; inactive = no reads after selection
Items are presented alongside their recorded amyloid nucleation score.
result_type: amyloid nucleation score

• IFCAGYDNPRFINLLLLPKG = 3.05
• SVKQLTPD = -0.319
• RYRALPTMPLEMSVQGDLRV = -0.319
• EPMKSFSHNCLTQIST = -0.557
• LSNYARGRVDVTLKNYLLLE = 0.476
• YGLLHQFRSCKRI = -0.682
• EADLYSTAIQLDK = -0.313
• HIIGLIYQKGTSWTA = 4.85
• MLPFNRSVPNAAFFIGMIGS = 2.16
• LYQWSGLIKSVLNSGCGKVE = 0.315
• RYRSFICALLRGFTDLACL = -1.53
• MMNCNVLMDKSSCFRYIVWG = 3.77
• DLRRSKSFDDTNEHWHSGFR = -0.607
• SLFLARRASTIARLFKRVYM = 0.127
• TLGLLDHWSLREWDTTGWVE = 0.691
• FLVLVTFKFRAQTDFLSSWN = -0.884
• DVREFSSDYSQVGVEVLVFL = 0.373
• SSGSRRLWSLRSRIAQRNMQ = 2.83
• SGPSFILSWS = -0.371
• KMWIRLLRSEIPKCVGLTVS = 0.66
• LGLTYGHHWY = 3.12
• KWVMRNIWDTYSKVGLQSST = -0.206
• VVIQPGTYFYLCNIFA = -1.58
• LRVWYDSSAVDMLNVLMSFP = 5.74
• TVVVYIRYRTPMRMVTPPSQ = 0.986
• GGVHGGFRSYVVAIWYGMLN = -1.37
• NVGTEFVWIPYFYSAS = 0.716
• LSRQFRRYLMLSLFYFVLLP = -1.21
• MISRCDWFWSKLKTSL = 2.29
• MVVGFRLPERLTYWRGGHMS = 5.32
• FLGDWKTCKVTGACKLCYGG = -0.018
• ILSCGRYWRTDTIVVTGNST = 1.91
• ALSNGNVLHGLSMLSYMHCW = -0.388
• FDTLKLCSMWDLCCHITRVA = 5.9
• SMMQLCV = -0.043
• SAVSMMLYWGSLNRVDYCWS = 0.877
• FGIMNMKYGYTCMMSSSKSS = -1.43
• FNLYYSRGLSSCLSYSRLEV = -0.532
• SGYSPSLFCKVFPWANELCS = -1.12
• SWYVGLCMYVPWYERRANGH = 11
• TWYPIAFKTGCEMLTERSM = 6.43
• YLFFYNMSRDRSDTWCEHAV = 3.5
• LQCIGNYSDWGSMVGREQSK = -0.066
• GSCNRKRHDVAYHLKCGMVA = 1.09
• CDPVSNFCIMLMCFIREYGR = 1.99
• KDHSMSELYGGICVRCYKLI = -0.378
• LGHAISAHVMIIICWKDVFL = 5.08
• IFLKWLYKSFDYNI = 0.973
• VIVGSLRCHFSLVAWVKC = 0.651
• SSLDNIWSTSD = 0.337
• VYSRDFRIQ = -1.1
• FWIEDF = -0.291
• QAPLWENSVSVPRLWWNSLS = -0.342
• MSLIKTHGKLTVGDVDFPKF = -0.753
